- TEST TARGET: rat α4β2 nAChR (Rattus norvegicus, UniProt P09483+P12390)
- EXPERIMENT NOTES: Competition binding with [^3H]epibatidine as radioligand, HEK cell membranes
OBSERVABLE: Ki

COCC[C@H]1CC2CN3CCc4c([nH]c5ccccc45)[C@](C(=O)OC)(C2)[C@H]13 [Compound 18-MC, 18-methoxycoronaridine]: > 10 µM

// next item, Ki requested
# input For CNC1(C)C2CCC(C2)C1(C)C (centres unmarked) [Mecamylamine] , what is its reported Ki?
# output > 10 µM

* * *

- TEST TARGET: rat α3β4 nAChR (Rattus norvegicus, UniProt P04757+P12392)
- EXPERIMENT NOTES: Competition binding with [^125I]AT-1012 as radioligand, HEK cell membranes
OBSERVABLE: Ki

# input For "COCC[C@H]1CC2CN3CCc4c([nH]c5ccccc45)[C@](C(=O)OC)(C2)[C@H]13" , what is its reported Ki?
# output > 10 µM

* * *

- TEST TARGET: rat α4β2 nAChR (Rattus norvegicus, UniProt P09483+P12390)
- EXPERIMENT NOTES: Competition binding with [^3H]epibatidine as radioligand, HEK cell membranes
- EXPERIMENTAL SETUP: read-out: Binding affinity (Ki)
List of Ki values.
// note: answer is a bare numeric in nM

CN1C2CCCC1CC(Nc1ccccc1Br)C2 (centres unmarked): 263

// next item, Ki requested
# input For CN1[C@@H]2CCC[C@H]1CC(Nc1ccccc1I)C2 (some centres unmarked) , what is its reported Ki?
# output 142

* * *

- TEST TARGET: human α3β4α5 nAChR (Homo sapiens, UniProt P30926+P32297)
- EXPERIMENT NOTES: Competition binding with [^125I]AT-1012 as radioligand, HEK cell membranes
- EXPERIMENTAL SETUP: read-out: Binding affinity (Ki) at human α3β4α5 nAChR; radioligand [^125I]AT-1012; average ± SD
OBSERVABLE: Ki (nM)
// note: answer is a bare numeric in nM

# input Hello, I am looking for reported Ki with human α3β4α5 nAChR (Homo sapiens, UniProt P30926+P32297) for CN1[C@@H]2CCC[C@H]1CC(Nc1ccccc1I)C2 (stereo partly shown) [AT-1012] . Could you help?
# output 0.68

* * *

- TEST TARGET: human α3β4α5 nAChR (Homo sapiens, UniProt P30926+P32297)
- Assay type: binding
- EXPERIMENTAL SETUP: read-out: Binding affinity (Ki) at human α3β4α5 nAChR
OBSERVABLE: pKi
Keep in mind that pKi stands for -log10 of concentration in molar terms.

# input Hello, I am looking for reported pKi with human α3β4α5 nAChR (Homo sapiens, UniProt P30926+P32297) for CN1[C@@H]2CCC[C@H]1CC(Nc1ccccc1I)C2 (stereo partly shown) . Could you help?
# output 8.97
